Where do these numbers come from? They come from the kinase profiling compilation of Christmann-Franck et al. (2016).

- target.or.system: UniProtKB Q07912
- Sequence (Q07912 whole entry, looked up): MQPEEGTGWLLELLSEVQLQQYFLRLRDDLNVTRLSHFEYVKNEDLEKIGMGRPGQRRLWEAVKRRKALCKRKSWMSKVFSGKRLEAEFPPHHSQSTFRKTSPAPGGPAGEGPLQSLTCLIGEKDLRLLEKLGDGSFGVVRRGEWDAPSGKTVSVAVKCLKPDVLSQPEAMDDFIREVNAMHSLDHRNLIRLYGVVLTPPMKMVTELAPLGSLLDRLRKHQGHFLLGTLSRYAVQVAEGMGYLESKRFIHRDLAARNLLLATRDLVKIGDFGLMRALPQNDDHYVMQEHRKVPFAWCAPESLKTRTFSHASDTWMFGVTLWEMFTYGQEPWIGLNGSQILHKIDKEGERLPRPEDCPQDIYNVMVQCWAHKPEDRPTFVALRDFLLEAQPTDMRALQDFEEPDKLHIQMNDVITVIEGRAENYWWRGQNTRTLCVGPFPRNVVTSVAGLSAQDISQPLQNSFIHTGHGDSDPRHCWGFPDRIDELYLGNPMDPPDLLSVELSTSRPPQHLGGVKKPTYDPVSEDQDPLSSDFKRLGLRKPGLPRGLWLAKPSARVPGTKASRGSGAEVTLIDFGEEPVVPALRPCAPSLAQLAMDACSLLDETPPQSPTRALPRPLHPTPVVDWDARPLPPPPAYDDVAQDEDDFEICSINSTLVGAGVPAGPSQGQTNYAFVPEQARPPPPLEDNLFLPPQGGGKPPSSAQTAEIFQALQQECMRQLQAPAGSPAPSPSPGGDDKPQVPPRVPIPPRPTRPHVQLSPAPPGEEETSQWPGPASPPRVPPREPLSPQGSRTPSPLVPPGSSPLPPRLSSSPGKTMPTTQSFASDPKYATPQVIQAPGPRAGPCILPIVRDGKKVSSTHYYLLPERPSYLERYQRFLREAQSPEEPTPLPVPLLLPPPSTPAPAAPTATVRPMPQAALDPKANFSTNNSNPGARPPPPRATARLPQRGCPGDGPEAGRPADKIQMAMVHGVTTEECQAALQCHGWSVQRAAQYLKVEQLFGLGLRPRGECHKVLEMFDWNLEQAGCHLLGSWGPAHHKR
- assay.summary: KINOMEscan competition binding
- stated.conditions: compound 10.0 µM
property: kinase still bound, per cent of control (%)
Reply with just the number (in %).

Worked set:
C=CC(=O)Nc1cc(-n2c(=O)ccc3cnc4ccc(-c5cn[nH]c5)cc4c32)ccc1C	100
CNC(=O)c1ccc(Nc2cc(Nc3ccccc3S(=O)(=O)C(C)C)c3cc[nH]c3n2)nc1	1
COc1ccc(N(C(=O)Oc2c(C)cccc2C)c2ccnc(Nc3ccc(N4CCN(C)CC4)cc3)n2)c(OC)c1	0
O=C(Nc1cccc(Nc2ncc(Br)c(NCCc3cnc[nH]3)n2)c1)N1CCCC1	18
CN(C)C/C=C/C(=O)Nc1ccc(C(=O)Nc2cccc(Nc3nccc(-c4cccnc4)n3)c2)cc1	100
CCN1CCN(C(=O)Cc2ccc(Nc3ncc(F)c(Nc4ccc(C(=O)Nc5ccccc5Cl)cc4)n3)cc2)CC1	10

Q) So what's the measured kinase still bound, per cent of control for this one? "Cc1n[nH]c2ccc(-c3cncc(OC[C@@H](N)Cc4c[nH]c5ccccc45)c3)cc12"
A) 100

---

- target.or.system: VRK2 (human) (UniProt Q86Y07)
- Sequence (Q86Y07 whole entry, looked up): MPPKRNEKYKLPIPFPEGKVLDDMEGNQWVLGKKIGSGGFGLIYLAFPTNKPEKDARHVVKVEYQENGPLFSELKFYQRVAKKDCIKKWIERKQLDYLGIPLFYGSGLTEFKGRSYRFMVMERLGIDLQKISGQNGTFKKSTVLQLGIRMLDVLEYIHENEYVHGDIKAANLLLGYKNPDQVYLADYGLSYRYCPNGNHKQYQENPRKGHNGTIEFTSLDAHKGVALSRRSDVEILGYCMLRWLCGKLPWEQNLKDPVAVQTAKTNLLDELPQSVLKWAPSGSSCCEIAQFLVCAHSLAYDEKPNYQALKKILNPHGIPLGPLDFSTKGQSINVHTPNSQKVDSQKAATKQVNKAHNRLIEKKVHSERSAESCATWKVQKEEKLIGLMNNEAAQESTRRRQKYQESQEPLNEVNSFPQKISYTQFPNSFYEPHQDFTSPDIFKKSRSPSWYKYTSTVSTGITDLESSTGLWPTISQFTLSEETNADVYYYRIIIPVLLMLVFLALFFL
- assay.summary: KINOMEscan competition binding
- stated.conditions: compound 10.0 µM
Measured kinase still bound, per cent of control, listed per entry.
Reply with just the number (in %).

Q) So what's the measured kinase still bound, per cent of control for this one? "O=C1NC(=O)/C(=C/c2ccc3nccc(-c4ccncc4)c3c2)S1"
A) 81

Q) Quick one: "O=c1cc(N2CCOCC2)oc2c(-c3cccc4c3sc3ccccc34)cccc12"
A) 100

Q) Quick one: "COc1cc2ncn(-c3cc(OCc4ccccc4C(F)(F)F)c(C(N)=O)s3)c2cc1OC"
A) 87

Q) Quick one: "CCN1CCN(C(=O)Cc2ccc(Nc3ncc(F)c(Nc4ccc(C(=O)Nc5ccccc5Cl)cc4)n3)cc2)CC1"
A) 100

Q) Quick one: "C[C@@H](Oc1cc(-c2cnn(C3CCNCC3)c2)cnc1N)c1c(Cl)ccc(F)c1Cl"
A) 100

Q) Quick one: "CN(C)C/C=C/C(=O)Nc1ccc(C(=O)Nc2cccc(Nc3nccc(-c4cccnc4)n3)c2)cc1"
A) 90

---

- target.or.system: IKBKE (human) (UniProt Q14164)
- Sequence (Q14164 whole entry, looked up): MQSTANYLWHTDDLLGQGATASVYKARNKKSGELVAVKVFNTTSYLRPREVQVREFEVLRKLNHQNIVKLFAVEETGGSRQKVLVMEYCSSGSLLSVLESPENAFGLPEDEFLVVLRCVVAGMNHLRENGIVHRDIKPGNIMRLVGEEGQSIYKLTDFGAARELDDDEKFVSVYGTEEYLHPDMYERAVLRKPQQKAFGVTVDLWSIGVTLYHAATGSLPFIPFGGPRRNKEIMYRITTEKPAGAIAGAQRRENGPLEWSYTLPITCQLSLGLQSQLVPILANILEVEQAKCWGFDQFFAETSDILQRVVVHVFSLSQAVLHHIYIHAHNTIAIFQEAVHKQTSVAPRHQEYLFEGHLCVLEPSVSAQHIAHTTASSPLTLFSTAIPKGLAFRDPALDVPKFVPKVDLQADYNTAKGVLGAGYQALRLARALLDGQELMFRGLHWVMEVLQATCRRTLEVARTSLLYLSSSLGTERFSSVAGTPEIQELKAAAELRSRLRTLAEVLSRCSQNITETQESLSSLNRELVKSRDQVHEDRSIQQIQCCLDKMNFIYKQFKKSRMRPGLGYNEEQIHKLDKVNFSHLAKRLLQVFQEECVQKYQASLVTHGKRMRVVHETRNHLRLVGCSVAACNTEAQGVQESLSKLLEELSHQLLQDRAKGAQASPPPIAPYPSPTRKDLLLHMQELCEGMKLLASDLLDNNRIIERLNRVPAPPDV
- assay.summary: KINOMEscan competition binding
- stated.conditions: compound 10.0 µM
Measured kinase still bound, per cent of control, listed per entry.
Reply with just the number (in %).

COc1cc(C(=O)N2CCC(N3CCN(C)CC3)CC2)ccc1Nc1ncc2c(n1)N(C)c1ccccc1C(=O)N2C	96
CCN(CC)CCCCNc1ncc2c(n1)N(C)C(=O)N(c1c(Cl)c(OC)cc(OC)c1Cl)C2	100
CNC(=O)c1cc(Oc2ccc(NC(=O)Nc3ccc(Cl)c(C(F)(F)F)c3)cc2)ccn1	100
N#CCNC(=O)c1ccc(-c2ccnc(Nc3ccc(N4CCOCC4)cc3)n2)cc1	5.2

Q) Return kinase still bound, per cent of control measured with IKBKE (human) (UniProt Q14164) given this molecule: "O=C(Nc1cccc(Nc2ncc(Br)c(NCCc3cnc[nH]3)n2)c1)N1CCCC1"
A) 4.6

Q) Quick one: "COc1ccc(N(C(=O)Oc2c(C)cccc2C)c2ccnc(Nc3ccc(N4CCN(C)CC4)cc3)n2)c(OC)c1"
A) 78

Q) Quick one: "CNC(=O)c1ccc(Nc2cc(Nc3ccccc3S(=O)(=O)C(C)C)c3cc[nH]c3n2)nc1"
A) 100

---

- Test system: RET (human), P07949 [M918T]
- Sequence (P07949 whole entry M918T, looked up): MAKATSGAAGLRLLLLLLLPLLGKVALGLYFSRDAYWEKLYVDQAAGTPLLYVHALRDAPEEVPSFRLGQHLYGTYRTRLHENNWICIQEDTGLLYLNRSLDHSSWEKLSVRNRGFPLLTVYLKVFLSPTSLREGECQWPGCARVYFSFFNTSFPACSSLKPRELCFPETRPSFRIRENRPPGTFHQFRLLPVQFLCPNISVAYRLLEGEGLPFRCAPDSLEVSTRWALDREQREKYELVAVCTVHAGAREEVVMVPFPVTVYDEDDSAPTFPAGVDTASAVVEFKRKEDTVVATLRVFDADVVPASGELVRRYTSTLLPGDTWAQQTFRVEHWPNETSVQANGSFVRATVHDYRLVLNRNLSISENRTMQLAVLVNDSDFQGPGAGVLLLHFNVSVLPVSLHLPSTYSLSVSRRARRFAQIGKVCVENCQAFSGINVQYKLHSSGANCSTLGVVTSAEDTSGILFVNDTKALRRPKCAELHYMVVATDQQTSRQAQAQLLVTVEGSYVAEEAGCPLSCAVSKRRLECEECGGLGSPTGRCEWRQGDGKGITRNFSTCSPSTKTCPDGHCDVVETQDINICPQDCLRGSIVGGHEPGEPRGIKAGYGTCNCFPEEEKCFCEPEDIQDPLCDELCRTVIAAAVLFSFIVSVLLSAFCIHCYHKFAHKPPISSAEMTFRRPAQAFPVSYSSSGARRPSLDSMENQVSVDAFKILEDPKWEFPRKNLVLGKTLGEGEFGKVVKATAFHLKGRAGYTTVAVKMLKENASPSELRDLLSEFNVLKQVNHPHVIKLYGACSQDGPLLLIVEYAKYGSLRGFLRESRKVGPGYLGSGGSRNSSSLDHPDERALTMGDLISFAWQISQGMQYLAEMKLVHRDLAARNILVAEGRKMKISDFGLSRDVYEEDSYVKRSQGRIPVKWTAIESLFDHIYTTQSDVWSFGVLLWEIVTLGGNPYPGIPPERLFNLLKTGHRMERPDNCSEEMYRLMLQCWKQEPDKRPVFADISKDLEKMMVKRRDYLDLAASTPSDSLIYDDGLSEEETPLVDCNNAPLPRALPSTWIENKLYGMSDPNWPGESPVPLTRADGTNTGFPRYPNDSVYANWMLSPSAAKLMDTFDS
- assay.summary: KINOMEscan competition binding
- stated.conditions: compound 10.0 µM
property: kinase still bound, per cent of control (%)
Reply with just the number (in %).

Worked set:
COc1ccc(N(C(=O)Oc2c(C)cccc2C)c2ccnc(Nc3ccc(N4CCN(C)CC4)cc3)n2)c(OC)c1	0.1
Cc1cn(-c2cc(C(=O)Nc3ccc(C)c(NC(=O)c4ccno4)c3)cc(C(F)(F)F)c2)cn1	100
COc1cc2ncnc(-n3nc(-c4ccccn4)nc3N)c2cc1OC	14

Q) So what's the measured kinase still bound, per cent of control for this one? "COc1cc2ncnc(Nc3cccc(Cl)c3)c2cc1OC"
A) 3.4

Q) Quick one: "C=CC(=O)Nc1cccc(Nc2nc(N[C@H]3CC[C@H](N(C)C)CC3)nc3c2ncn3C(C)C)c1"
A) 100

---

- target.or.system: CDK4 CCND3 (human) (UniProt P11802+P30281)
- Sequence (P11802 whole entry, looked up): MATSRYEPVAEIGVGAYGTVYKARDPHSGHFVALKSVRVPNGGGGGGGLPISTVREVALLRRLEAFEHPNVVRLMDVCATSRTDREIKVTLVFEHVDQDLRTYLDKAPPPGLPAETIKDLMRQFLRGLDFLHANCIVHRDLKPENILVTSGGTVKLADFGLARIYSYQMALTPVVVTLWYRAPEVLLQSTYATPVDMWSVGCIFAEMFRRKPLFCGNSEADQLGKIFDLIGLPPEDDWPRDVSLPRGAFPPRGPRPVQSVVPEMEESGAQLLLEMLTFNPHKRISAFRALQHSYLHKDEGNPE
- Sequence (P30281 whole entry, looked up): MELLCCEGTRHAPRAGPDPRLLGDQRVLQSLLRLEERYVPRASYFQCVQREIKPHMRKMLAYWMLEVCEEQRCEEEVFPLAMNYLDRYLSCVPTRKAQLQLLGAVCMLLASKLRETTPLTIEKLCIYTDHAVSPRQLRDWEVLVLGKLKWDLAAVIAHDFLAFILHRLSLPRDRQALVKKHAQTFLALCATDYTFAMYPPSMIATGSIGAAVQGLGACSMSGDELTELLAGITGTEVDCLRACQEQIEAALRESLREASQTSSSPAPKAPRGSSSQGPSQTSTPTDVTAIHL
- assay.summary: KINOMEscan competition binding
- stated.conditions: compound 10.0 µM
property: kinase still bound, per cent of control (%)
Reply with just the number (in %).

C[C@@H](Oc1cc(-c2cnn(C3CCNCC3)c2)cnc1N)c1c(Cl)ccc(F)c1Cl	39

Q) So what's the measured kinase still bound, per cent of control for this one? "N#CCNC(=O)c1ccc(-c2ccnc(Nc3ccc(N4CCOCC4)cc3)n2)cc1"
A) 13

Q) Quick one: "O=c1cc(N2CCOCC2)oc2c(-c3cccc4c3sc3ccccc34)cccc12"
A) 100

Q) Quick one: "CN(C)C/C=C/C(=O)Nc1ccc(C(=O)Nc2cccc(Nc3nccc(-c4cccnc4)n3)c2)cc1"
A) 100

Q) Quick one: "NC(=O)Nc1cc(-c2cccc(F)c2)sc1C(=O)N[C@@H]1CCCNC1"
A) 92

Q) Quick one: "COCC(=O)NC/C=C/c1ccc2ncnc(Nc3ccc(Oc4ccc(C)nc4)c(C)c3)c2c1"
A) 100

Q) Quick one: "COc1ccc(N(C(=O)Oc2c(C)cccc2C)c2ccnc(Nc3ccc(N4CCN(C)CC4)cc3)n2)c(OC)c1"
A) 26

---

- target.or.system: CSNK2A1 (human)
- assay.summary: KINOMEscan competition binding
- stated.conditions: compound 10.0 µM
API: label(entry) gives satisfied if the entry's kinase still bound, per cent of control is strictly smaller than 20%; on equality or larger values it gives not satisfied.

CN(C)C/C=C/C(=O)Nc1ccc(C(=O)Nc2cccc(Nc3nccc(-c4cccnc4)n3)c2)cc1	satisfied

Q) Does this compound meet the criterion kinase still bound, per cent of control < 20%? "CS(=O)(=O)N1CCN(Cc2cc3nc(-c4cccc5[nH]ncc45)nc(N4CCOCC4)c3s2)CC1"
A) not satisfied

Q) Quick one: "C[C@@H](Oc1cc(-c2cnn(C3CCNCC3)c2)cnc1N)c1c(Cl)ccc(F)c1Cl"
A) not satisfied

Q) Quick one: "COc1ccc(N(C(=O)Oc2c(C)cccc2C)c2ccnc(Nc3ccc(N4CCN(C)CC4)cc3)n2)c(OC)c1"
A) not satisfied

Q) Quick one: "COc1cc2ncnc(-n3nc(-c4ccccn4)nc3N)c2cc1OC"
A) satisfied

Q) Quick one: "CCN(CC)CCCCNc1ncc2cc(-c3cc(OC)cc(OC)c3)c(NC(=O)NC(C)(C)C)nc2n1"
A) not satisfied

---

- target.or.system: EPHA1 (human)
- assay.summary: KINOMEscan competition binding
- stated.conditions: compound 10.0 µM
API: label(entry) gives fulfilled if the entry's kinase still bound, per cent of control is strictly smaller than 80%; on equality or larger values it gives not fulfilled.

Field: example entries. Status: answers known.
C[C@@H](Oc1cc(-c2cnn(C3CCNCC3)c2)cnc1N)c1c(Cl)ccc(F)c1Cl	fulfilled
O=C1NC(=O)/C(=C/c2ccc3nccc(-c4ccncc4)c3c2)S1	not fulfilled
CS(=O)(=O)N1CCN(Cc2cc3nc(-c4cccc5[nH]ncc45)nc(N4CCOCC4)c3s2)CC1	not fulfilled
CCN(CC)CCCCNc1ncc2cc(-c3cc(OC)cc(OC)c3)c(NC(=O)NC(C)(C)C)nc2n1	not fulfilled
CNC(=O)c1cc(Oc2ccc(NC(=O)Nc3ccc(Cl)c(C(F)(F)F)c3)cc2)ccn1	fulfilled

Q) Does this compound meet the criterion kinase still bound, per cent of control < 80%? "C=CC(=O)Nc1ccc(CN(C(=O)Nc2c(Cl)c(OC)cc(OC)c2Cl)c2cc(Nc3ccc(N4CCN(C)CC4)cc3)ncn2)cc1"
A) not fulfilled

Q) Quick one: "CCN1CCN(C(=O)Cc2ccc(Nc3ncc(F)c(Nc4ccc(C(=O)Nc5ccccc5Cl)cc4)n3)cc2)CC1"
A) fulfilled

Q) Quick one: "N#CCNC(=O)c1ccc(-c2ccnc(Nc3ccc(N4CCOCC4)cc3)n2)cc1"
A) not fulfilled

Q) Quick one: "CNC(=O)c1ccc(Nc2cc(Nc3ccccc3S(=O)(=O)C(C)C)c3cc[nH]c3n2)nc1"
A) not fulfilled

Q) Quick one: "COc1cc2ncnc(-n3nc(-c4ccccn4)nc3N)c2cc1OC"
A) fulfilled

Q) Quick one: "O=c1cc(N2CCOCC2)oc2c(-c3cccc4c3sc3ccccc34)cccc12"
A) not fulfilled

Q) Quick one: "CCN(CC)CCCCNc1ncc2c(n1)N(C)C(=O)N(c1c(Cl)c(OC)cc(OC)c1Cl)C2"
A) not fulfilled

Q) Quick one: "O=C(Nc1cccc(Nc2ncc(Br)c(NCCc3cnc[nH]3)n2)c1)N1CCCC1"
A) fulfilled

Q) Quick one: "CN(C)C/C=C/C(=O)Nc1ccc(C(=O)Nc2cccc(Nc3nccc(-c4cccnc4)n3)c2)cc1"
A) fulfilled

Q) Quick one: "C=CC(=O)Nc1cc(-n2c(=O)ccc3cnc4ccc(-c5cn[nH]c5)cc4c32)ccc1C"
A) not fulfilled

Q) Quick one: "Cc1n[nH]c2ccc(-c3cncc(OC[C@@H](N)Cc4c[nH]c5ccccc45)c3)cc12"
A) not fulfilled

Q) Quick one: "COc1ccc(N(C(=O)Oc2c(C)cccc2C)c2ccnc(Nc3ccc(N4CCN(C)CC4)cc3)n2)c(OC)c1"
A) fulfilled

Q) Quick one: "COc1cc(C(=O)N2CCC(N3CCN(C)CC3)CC2)ccc1Nc1ncc2c(n1)N(C)c1ccccc1C(=O)N2C"
A) not fulfilled

Q) Quick one: "NC(=O)Nc1cc(-c2cccc(F)c2)sc1C(=O)N[C@@H]1CCCNC1"
A) fulfilled

Q) Quick one: "COCC(=O)NC/C=C/c1ccc2ncnc(Nc3ccc(Oc4ccc(C)nc4)c(C)c3)c2c1"
A) not fulfilled

Q) Quick one: "COc1cc(N2CCN(C)CC2)ccc1Nc1ncc2c(n1)N(C)c1ccccc1C(=O)N2C"
A) not fulfilled

Q) Quick one: "COc1cc2ncn(-c3cc(OCc4ccccc4C(F)(F)F)c(C(N)=O)s3)c2cc1OC"
A) not fulfilled
